tested on: MCF-7 breast cancer cells; assay: antiproliferative activity, MTT assay, MCF-7; conditions: Homo sapiens, MCF7, 72 h, read-out: MCF-7 Inhibition (%)

[
  {
    "Compound": "Oc1ccc(-c2ccc(-c3ccc(O)cc3)[se]2)cc1 [Compound 2a, 2,5-Bis(4-hydroxyphenyl)selenophene]",
    "Unit Name": "%",
    "inhibition at 10 µM": 0
  },
  {
    "Compound": "Cc1cc(-c2cc(Br)c(-c3cc(C)c(O)c(C)c3)[se]2)cc(C)c1O [Compound 6d]",
    "Unit Name": "%",
    "inhibition at 10 µM": 26.5
  },
  {
    "Compound": "Cc1cc(-c2c[se]cc2-c2ccc(O)c(C)c2)ccc1O [Compound 4c]",
    "Unit Name": "%",
    "inhibition at 10 µM": 0
  },
  {
    "Compound": "Oc1cc(-c2cc(Br)c(-c3ccc(F)c(O)c3)[se]2)ccc1F [Compound 6f]",
    "Unit Name": "%",
    "inhibition at 10 µM": 0
  },
  {
    "Compound": "Oc1ccc(-c2c[se]cc2-c2ccc(O)cc2)cc1 [Compound 4a, 3,4-Bis(4-hydroxyphenyl)selenophene]",
    "Unit Name": "%",
    "inhibition at 10 µM": 0
  },
  {
    "Compound": "Oc1ccc(-c2c[se]cc2-c2ccc(O)c(F)c2)cc1F [Compound 4d]",
    "Unit Name": "%",
    "inhibition at 10 µM": 0
  },
  {
    "Compound": "Oc1ccc(-c2ccc(-c3ccc(O)c(Cl)c3)[se]2)cc1Cl [Compound 2h]",
    "Unit Name": "%",
    "inhibition at 10 µM": 5.3
  },
  {
    "Compound": "Cc1cc(O)ccc1-c1ccc(-c2ccc(O)cc2C)[se]1 [Compound 2b]",
    "Unit Name": "%",
    "inhibition at 10 µM": 3.4
  }
]

====

Entries and their measured pEC50 follow.
biological target: ERα (Homo sapiens, UniProt P03372); assay: cell-based; format: cell-based
Sequence (P03372 whole entry): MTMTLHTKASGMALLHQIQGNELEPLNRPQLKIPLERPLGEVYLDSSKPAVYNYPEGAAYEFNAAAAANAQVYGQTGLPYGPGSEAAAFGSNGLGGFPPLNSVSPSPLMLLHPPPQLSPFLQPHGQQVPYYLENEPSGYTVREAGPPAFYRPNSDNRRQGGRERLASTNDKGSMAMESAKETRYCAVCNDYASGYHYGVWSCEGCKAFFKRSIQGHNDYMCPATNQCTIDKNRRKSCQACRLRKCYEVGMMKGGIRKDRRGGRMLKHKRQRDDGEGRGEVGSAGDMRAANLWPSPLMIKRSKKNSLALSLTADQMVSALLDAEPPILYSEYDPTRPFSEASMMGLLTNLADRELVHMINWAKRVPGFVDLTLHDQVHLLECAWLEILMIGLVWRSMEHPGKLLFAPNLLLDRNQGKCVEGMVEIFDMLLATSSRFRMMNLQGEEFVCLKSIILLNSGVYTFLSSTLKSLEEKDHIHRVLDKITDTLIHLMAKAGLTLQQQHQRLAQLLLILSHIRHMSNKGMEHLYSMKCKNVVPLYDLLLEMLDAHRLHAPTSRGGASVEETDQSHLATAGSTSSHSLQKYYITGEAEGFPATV
pEC50: −log10 of the molar value.
Metric: pEC50

[
  {
    "Structure As Smiles": "Cc1cc(O)ccc1-c1cc(Br)c(-c2ccc(O)cc2C)[se]1",
    "Measurement": 6.10
  },
  {
    "Structure As Smiles": "Cc1cc(O)ccc1-c1ccc(-c2ccc(O)cc2C)[se]1",
    "Measurement": 5.87
  },
  {
    "Structure As Smiles": "Cc1cc(-c2cc(-c3ccc(O)c(C)c3)c(-c3ccc(O)c(C)c3)[se]2)ccc1O",
    "Measurement": 6.49
  },
  {
    "Structure As Smiles": "Cc1cc(-c2cc(-c3cc(C)c(O)c(C)c3)c(-c3cc(C)c(O)c(C)c3)[se]2)cc(C)c1O",
    "Measurement": 6.57
  },
  {
    "Structure As Smiles": "Oc1ccc(-c2ccc(-c3ccc(O)c(Cl)c3)[se]2)cc1Cl",
    "Measurement": 7.40
  },
  {
    "Structure As Smiles": "Oc1cc(-c2cc(Br)c(-c3ccc(F)c(O)c3)[se]2)ccc1F",
    "Measurement": 6.92
  },
  {
    "Structure As Smiles": "Cc1cc(-c2c[se]cc2-c2ccc(O)c(C)c2)ccc1O",
    "Measurement": 6.49
  },
  {
    "Structure As Smiles": "Oc1ccc(-c2ccc(-c3ccc(O)cc3F)[se]2)c(F)c1",
    "Measurement": 6.64
  },
  {
    "Structure As Smiles": "Oc1ccc(-c2cc(Br)c(-c3ccc(O)cc3)[se]2)cc1",
    "Measurement": 7.82
  }
]
